Target: human TAS2R14 (Homo sapiens, UniProt Q9NYV8)
Construct: expressed in transfected cells; host or cells: HEK293T-Gα16gust44
Sequence (Q9NYV8 1-317): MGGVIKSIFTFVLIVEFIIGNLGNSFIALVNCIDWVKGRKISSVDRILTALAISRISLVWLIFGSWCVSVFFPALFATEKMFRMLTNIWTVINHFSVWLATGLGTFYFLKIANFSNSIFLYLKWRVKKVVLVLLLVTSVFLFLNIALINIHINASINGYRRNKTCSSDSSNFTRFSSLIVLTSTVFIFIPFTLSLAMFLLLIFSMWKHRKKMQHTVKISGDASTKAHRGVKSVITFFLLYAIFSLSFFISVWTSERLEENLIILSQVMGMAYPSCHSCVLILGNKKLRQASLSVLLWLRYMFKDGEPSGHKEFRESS
Assay: Calcium imaging assay (FLIPR), HEK293T-Gα16gust44 cells transfected with human TAS2R14
Format: cell-based
Settings: TAS2R14 trace; Time (s) 221.578 (Taurocholic Acid 221.563, Chenodeoxycholic Acid 221.546)
Experimental: This set of bile acids was chosen because of their commercial availability in high purities, their diversity within the class of bile acids and their previous detection and quantitation in human blood. Stock solutions were prepared in DMSO. […] Measured data were negative control corrected by subtracting the signal of the mock-transfected cells and exported to Microsoft Excel using the FLIPR software ScreenWorks 4.2. […]
The following molecules are listed with their measured RLU values.
MEASURED METRIC: RLU (RLU)

MOLECULE	ASSAY RESULT
C[C@H](CCC(=O)NCC(=O)O)[C@H]1CC[C@H]2[C@@H]3[C@H](O)C[C@@H]4C[C@H](O)CC[C@]4(C)[C@H]3C[C@H](O)[C@]12C [Glycocholic Acid, glycocholic acid]	516.97
C[C@H](CCC(=O)NCCS(=O)(=O)O)[C@H]1CC[C@H]2[C@@H]3[C@H](O)C[C@@H]4C[C@H](O)CC[C@]4(C)[C@H]3C[C@H](O)[C@]12C [Taurocholic Acid, taurocholic acid]	526.781
C[C@H](CCC(=O)O)[C@H]1CC[C@H]2[C@@H]3[C@H](O)C[C@@H]4C[C@H](O)CC[C@]4(C)[C@H]3C[C@H](O)[C@]12C [Cholic Acid, cholic acid]	629.159
C[C@H](CCC(=O)NCCS(=O)(=O)O)[C@H]1CC[C@H]2[C@@H]3CC[C@@H]4C[C@H](O)CC[C@]4(C)[C@H]3CC[C@]12C [Taurolithocholic Acid, taurolithocholic acid]	195.665
C[C@H](CCC(=O)O)[C@H]1CC[C@H]2[C@@H]3[C@H](O)C[C@@H]4C[C@H](O)CC[C@]4(C)[C@H]3CC[C@]12C [Chenodeoxycholic Acid, chenodeoxycholic acid]	182.465

---

Molecular target: human TAS2R1 (Homo sapiens, UniProt Q9NYW7)
Construct: expressed in transfected cells; host or cells: HEK293T-Gα16gust44
Sequence (Q9NYW7 1-299): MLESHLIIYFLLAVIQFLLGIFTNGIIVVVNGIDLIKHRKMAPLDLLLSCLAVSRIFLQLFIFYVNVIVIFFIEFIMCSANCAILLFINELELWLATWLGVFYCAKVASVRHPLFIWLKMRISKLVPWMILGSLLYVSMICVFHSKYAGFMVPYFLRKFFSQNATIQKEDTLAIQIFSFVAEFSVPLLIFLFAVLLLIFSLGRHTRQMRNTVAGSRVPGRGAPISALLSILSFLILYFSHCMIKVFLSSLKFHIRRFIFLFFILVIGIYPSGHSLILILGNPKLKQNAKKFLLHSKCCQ
Assay: Calcium imaging assay (FLIPR), HEK293T-Gα16gust44 cells transfected with human TAS2R1
Type: cell-based
Details: Time 42.796 s
Entries annotated with measured RLU

MOLECULAR STRING	UNIT STRING	RLU
C[C@H](CCC(=O)O)[C@H]1CC[C@H]2[C@@H]3[C@H](O)C[C@@H]4C[C@H](O)CC[C@]4(C)[C@H]3C[C@H](O)[C@]12C	RLU	688.029
C[C@H](CCC(=O)O)[C@H]1CC[C@H]2[C@@H]3[C@H](O)C[C@@H]4C[C@H](O)CC[C@]4(C)[C@H]3CC[C@]12C	RLU	876.11
C[C@H](CCC(=O)O)[C@H]1CC[C@H]2[C@@H]3[C@@H](O)C[C@@H]4C[C@H](O)CC[C@]4(C)[C@H]3CC[C@]12C	RLU	682.803
C[C@H](CCC(=O)O)[C@H]1CC[C@H]2[C@@H]3CC[C@@H]4C[C@H](O)CC[C@]4(C)[C@H]3CC[C@]12C	RLU	644.654

---

Overview of recorded RLU for various compounds
target: human TAS2R1 (Homo sapiens, UniProt Q9NYW7); construct: expressed in transfected cells; host or cells: HEK293T-Gα16gust44; experiment: Calcium imaging assay (FLIPR), HEK293T-Gα16gust44 cells transfected with human TAS2R1; assay type: cell-based; details: Time 149.562 s
MEASURED METRIC: RLU

MOLECULAR STRING	ASSAY RESULT
C[C@H](CCC(=O)O)[C@H]1CC[C@H]2[C@@H]3[C@H](O)C[C@@H]4C[C@H](O)CC[C@]4(C)[C@H]3C[C@H](O)[C@]12C	297.638 RLU
C[C@H](CCC(=O)O)[C@H]1CC[C@H]2[C@@H]3CC[C@@H]4C[C@H](O)CC[C@]4(C)[C@H]3CC[C@]12C	770.713 RLU
C[C@H](CCC(=O)O)[C@H]1CC[C@H]2[C@@H]3[C@H](O)C[C@@H]4C[C@H](O)CC[C@]4(C)[C@H]3CC[C@]12C	492.752 RLU
C[C@H](CCC(=O)O)[C@H]1CC[C@H]2[C@@H]3[C@@H](O)C[C@@H]4C[C@H](O)CC[C@]4(C)[C@H]3CC[C@]12C	176.37 RLU

---

Target: human TAS2R14 (Homo sapiens, UniProt Q9NYV8)
Construct: expressed in transfected cells; host or cells: HEK293T-Gα16gust44
Sequence (Q9NYV8 1-317): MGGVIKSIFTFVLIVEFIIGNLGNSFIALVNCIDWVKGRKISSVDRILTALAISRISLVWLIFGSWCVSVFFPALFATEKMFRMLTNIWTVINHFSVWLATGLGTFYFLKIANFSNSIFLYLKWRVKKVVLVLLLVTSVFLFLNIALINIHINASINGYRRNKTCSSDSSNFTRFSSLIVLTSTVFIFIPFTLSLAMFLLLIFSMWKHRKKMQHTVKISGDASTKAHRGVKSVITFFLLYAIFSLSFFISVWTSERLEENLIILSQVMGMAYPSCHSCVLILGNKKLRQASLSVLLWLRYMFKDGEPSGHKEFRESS
Assay: Calcium imaging assay (FLIPR), HEK293T-Gα16gust44 cells transfected with human TAS2R14
Type: cell-based
Conditions: TAS2R14 trace; Time (s) 96.797 (Chenodeoxycholic Acid 96.781)
Method: This set of bile acids was chosen because of their commercial availability in high purities, their diversity within the class of bile acids and their previous detection and quantitation in human blood. Stock solutions were prepared in DMSO. […] Measured data were negative control corrected by subtracting the signal of the mock-transfected cells and exported to Microsoft Excel using the FLIPR software ScreenWorks 4.2. […]
MEASURED METRIC: RLU (RLU)

MOLECULAR STRING	ASSAY RESULT
C[C@H](CCC(=O)O)[C@H]1CC[C@H]2[C@@H]3[C@H](O)C[C@@H]4C[C@H](O)CC[C@]4(C)[C@H]3CC[C@]12C	632.564
C[C@H](CCC(=O)NCC(=O)O)[C@H]1CC[C@H]2[C@@H]3[C@H](O)C[C@@H]4C[C@H](O)CC[C@]4(C)[C@H]3C[C@H](O)[C@]12C	875.012
C[C@H](CCC(=O)O)[C@H]1CC[C@H]2[C@@H]3[C@H](O)C[C@@H]4C[C@H](O)CC[C@]4(C)[C@H]3C[C@H](O)[C@]12C	1163.63
C[C@H](CCC(=O)NCCS(=O)(=O)O)[C@H]1CC[C@H]2[C@@H]3[C@H](O)C[C@@H]4C[C@H](O)CC[C@]4(C)[C@H]3C[C@H](O)[C@]12C	840.46
C[C@H](CCC(=O)NCCS(=O)(=O)O)[C@H]1CC[C@H]2[C@@H]3CC[C@@H]4C[C@H](O)CC[C@]4(C)[C@H]3CC[C@]12C	314.559

---

Biological target: human TAS2R14 (Homo sapiens)
Construct: expressed in transfected cells; host or cells: HEK293T-Gα16gust44
Sequence (Q9NYV8 1-317): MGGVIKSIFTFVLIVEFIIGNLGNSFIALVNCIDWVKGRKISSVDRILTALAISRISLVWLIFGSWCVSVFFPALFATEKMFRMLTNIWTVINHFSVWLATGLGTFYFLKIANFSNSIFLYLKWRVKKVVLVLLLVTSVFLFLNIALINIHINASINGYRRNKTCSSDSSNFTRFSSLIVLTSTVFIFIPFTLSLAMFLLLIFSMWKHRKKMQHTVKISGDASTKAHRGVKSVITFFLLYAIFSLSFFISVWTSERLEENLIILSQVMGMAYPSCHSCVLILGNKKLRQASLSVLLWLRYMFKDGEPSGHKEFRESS
Assay: Calcium imaging assay (FLIPR), HEK293T-Gα16gust44 cells transfected with human TAS2R14
Type: cell-based
Details: TAS2R14 trace; Time (s) 26.797 (Chenodeoxycholic Acid 26.781)
MEASURED METRIC: RLU (RLU)

COMPOUND	TARGET ENTITY	ASSAY RESULT
C[C@H](CCC(=O)NCC(=O)O)[C@H]1CC[C@H]2[C@@H]3[C@H](O)C[C@@H]4C[C@H](O)CC[C@]4(C)[C@H]3C[C@H](O)[C@]12C [Glycocholic Acid, glycocholic acid]	human TAS2R14 (Homo sapiens)	-4.829
C[C@H](CCC(=O)O)[C@H]1CC[C@H]2[C@@H]3[C@H](O)C[C@@H]4C[C@H](O)CC[C@]4(C)[C@H]3C[C@H](O)[C@]12C [Cholic Acid, cholic acid]	human TAS2R14 (Homo sapiens)	16.5716
C[C@H](CCC(=O)O)[C@H]1CC[C@H]2[C@@H]3[C@H](O)C[C@@H]4C[C@H](O)CC[C@]4(C)[C@H]3CC[C@]12C [Chenodeoxycholic Acid, chenodeoxycholic acid]	human TAS2R14 (Homo sapiens)	194.457
C[C@H](CCC(=O)NCCS(=O)(=O)O)[C@H]1CC[C@H]2[C@@H]3[C@H](O)C[C@@H]4C[C@H](O)CC[C@]4(C)[C@H]3C[C@H](O)[C@]12C [Taurocholic Acid, taurocholic acid]	human TAS2R14 (Homo sapiens)	-30.6749
C[C@H](CCC(=O)NCCS(=O)(=O)O)[C@H]1CC[C@H]2[C@@H]3CC[C@@H]4C[C@H](O)CC[C@]4(C)[C@H]3CC[C@]12C [Taurolithocholic Acid, taurolithocholic acid]	human TAS2R14 (Homo sapiens)	-41.6616
